compounds and their reported max activation
# Assayed Target: Peroxisome proliferator-activated receptor gamma (Mus musculus)
# Sequence (P37238 whole entry): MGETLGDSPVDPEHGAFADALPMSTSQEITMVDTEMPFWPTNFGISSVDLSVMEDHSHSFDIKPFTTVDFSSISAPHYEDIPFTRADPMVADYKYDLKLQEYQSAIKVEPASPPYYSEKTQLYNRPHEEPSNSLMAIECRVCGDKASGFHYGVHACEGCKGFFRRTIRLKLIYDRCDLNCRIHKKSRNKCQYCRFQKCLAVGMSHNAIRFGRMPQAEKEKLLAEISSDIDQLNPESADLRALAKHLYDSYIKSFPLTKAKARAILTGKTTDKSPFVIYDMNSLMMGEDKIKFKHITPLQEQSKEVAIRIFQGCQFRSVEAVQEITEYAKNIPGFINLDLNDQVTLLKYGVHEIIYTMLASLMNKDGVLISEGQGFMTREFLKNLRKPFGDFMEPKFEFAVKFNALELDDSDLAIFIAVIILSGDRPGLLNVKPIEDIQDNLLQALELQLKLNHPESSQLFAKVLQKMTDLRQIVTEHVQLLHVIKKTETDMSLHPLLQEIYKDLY
# Protocol Notes: Agonist activity at mouse PPARgamma expressed in CV-1 cells by reporter gene assay relative to rosiglitazone
# Type: cell-based
Reply with just the number (in %).

Worked examples, 3 compounds total:
{"columns": ["Compound", "Units Label", "max activation"],
 "data": [
  ["CCCc1[nH]c2cc(C(=O)NC(CC)c3ccccc3)ccc2c1Cc1ccc(-c2ccccc2C(=O)O)cc1 (centres undefined)", "%", 36],
  ["CCCc1c(Cc2ccc(-c3ccccc3C(=O)O)cc2)c2cc(C(=O)NC(CC)c3ccccc3)ccc2n1OC (centres undefined)", "%", 17],
  ["CCCc1[nH]c2ccc(C(=O)NC(CC)c3ccccc3)cc2c1Cc1ccc(-c2ccccc2C(=O)O)cc1 (centres undefined)", "%", 24]
]}

[ask] Return reported max activation. Input compound: CCCc1nn2ccc(-c3nc4ccccc4n3CCC)cc2c1Cc1ccc(-c2ccccc2-c2nn[nH]n2)cc1
[reply] 60

[ask] Return reported max activation. Input compound: CCCc1c(Cc2ccc(-c3ccccc3C(=O)O)cc2)c2ccc(C(=O)NC(CC)c3ccccc3)cc2n1C (centres undefined)
[reply] 42

[ask] Return reported max activation. Input compound: CCCc1nn2ccc(C(=O)NC(CC)c3ccccc3)cc2c1Cc1ccc(-c2ccccc2-c2nn[nH]n2)cc1 (centres undefined)
[reply] 9

[ask] Return reported max activation. Input compound: CCCCn1c(-c2ccc3nn(CCC)c(Cc4ccc(-c5ccccc5C(=O)O)cc4)c3c2)nc2ccccc21
[reply] 37

[ask] Return reported max activation. Input compound: CCCc1nn2ccc(C(=O)NC(CC)c3ccccc3)cc2c1Cc1ccc(-c2ccccc2C(=O)O)cc1 (centres undefined)
[reply] 32

[ask] Return reported max activation. Input compound: CCCc1nn2ccc(-c3nc4ccccc4n3CCC)cc2c1Cc1ccc(-c2ccccc2C(=O)O)cc1
[reply] 27

* * *

# Assayed Target: Peroxisome proliferator-activated receptor gamma (Mus musculus)
# Protocol Notes: Agonist activity at mouse PPARgamma expressed in CV-1 cells by reporter gene assay
# Type: cell-based
compounds and their reported EC50
Reply with just the number (in nM).

[ask] Return reported EC50. Input compound: CCCc1c(Cc2ccc(-c3ccccc3C(=O)O)cc2)c2ccc(C(=O)NC(CC)c3ccccc3)cc2n1C (centres undefined)
[reply] 3

[ask] Return reported EC50. Input compound: CCCc1nn2ccc(C(=O)NC(CC)c3ccccc3)cc2c1Cc1ccc(-c2ccccc2C(=O)O)cc1 (centres undefined)
[reply] 1020

[ask] Return reported EC50. Input compound: CCCc1nn2ccc(-c3nc4ccccc4n3CCC)cc2c1Cc1ccc(-c2ccccc2-c2nnn[nH]2)cc1
[reply] 130

[ask] Return reported EC50. Input compound: CCCc1nn2ccc(-c3nc4ccccc4n3CCC)cc2c1Cc1ccc(-c2ccccc2C(=O)O)cc1
[reply] 380

* * *

# Assayed Target: Peroxisome proliferator-activated receptor delta (Mus musculus, UniProt P35396)
# Sequence (P35396 whole entry): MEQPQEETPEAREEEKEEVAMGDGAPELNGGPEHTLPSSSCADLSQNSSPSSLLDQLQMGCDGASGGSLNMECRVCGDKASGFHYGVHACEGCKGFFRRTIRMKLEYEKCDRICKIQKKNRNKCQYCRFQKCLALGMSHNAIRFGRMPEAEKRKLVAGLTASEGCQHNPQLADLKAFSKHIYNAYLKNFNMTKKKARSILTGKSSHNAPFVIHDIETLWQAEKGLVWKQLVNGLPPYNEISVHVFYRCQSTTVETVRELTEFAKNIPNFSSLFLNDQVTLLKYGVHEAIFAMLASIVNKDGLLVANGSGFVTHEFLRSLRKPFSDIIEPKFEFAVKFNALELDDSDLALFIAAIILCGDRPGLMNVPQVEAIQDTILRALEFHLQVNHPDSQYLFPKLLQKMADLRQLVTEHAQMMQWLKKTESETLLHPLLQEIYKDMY
# Protocol Notes: Agonist activity at mouse PPARdelta expressed in CV-1 cells by reporter gene assay
pEC50: −log10 of the molar value.
Quantity Kind: pEC50

{"columns": ["Query Smiles", "Assayed Target", "pEC50"],
 "data": [
  ["CCCc1nn2ccc(-c3nc4ccccc4n3CCC)cc2c1Cc1ccc(-c2ccccc2-c2nnn[nH]2)cc1", "Peroxisome proliferator-activated receptor delta (Mus musculus, UniProt P35396)", "< 5.00"],
  ["CCCCn1c(-c2ccc3nn(CCC)c(Cc4ccc(-c5ccccc5-c5nn[nH]n5)cc4)c3c2)nc2ccccc21", "Peroxisome proliferator-activated receptor delta (Mus musculus, UniProt P35396)", "< 5.00"]
]}

Switching to the query record.
[ask] Return reported pEC50. Input molecule: CCCCn1c(-c2ccc3nn(CCC)c(Cc4ccc(-c5ccccc5C(=O)O)cc4)c3c2)nc2ccccc21
[reply] < 5.00

All figures here come from ChEMBL document CHEMBL3112505.
